Where do the numbers come from? From ChEMBL document CHEMBL2157924.

Target: Glucagon-like peptide 1 receptor (Rattus norvegicus) (UniProt P32301)
Sequence (whole entry): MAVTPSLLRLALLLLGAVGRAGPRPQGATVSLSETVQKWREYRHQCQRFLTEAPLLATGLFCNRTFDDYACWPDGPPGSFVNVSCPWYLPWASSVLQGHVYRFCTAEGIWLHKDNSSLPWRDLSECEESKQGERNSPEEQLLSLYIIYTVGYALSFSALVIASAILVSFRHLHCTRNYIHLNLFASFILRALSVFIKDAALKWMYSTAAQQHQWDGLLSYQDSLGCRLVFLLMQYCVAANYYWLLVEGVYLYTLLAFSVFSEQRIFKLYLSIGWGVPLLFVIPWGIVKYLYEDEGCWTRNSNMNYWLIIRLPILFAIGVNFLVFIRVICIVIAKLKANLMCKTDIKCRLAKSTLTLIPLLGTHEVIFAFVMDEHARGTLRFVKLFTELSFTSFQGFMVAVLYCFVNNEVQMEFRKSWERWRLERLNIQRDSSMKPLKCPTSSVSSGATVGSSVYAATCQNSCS
Test: Agonist activity at rat GLP1R expressed in HEK293 cells assessed as stimulation of cAMP levels incubated for 6 hrs by multiple response element/cAMP response element (MRE/CRE)-driven reporter gene assay relative to 10 nM GLP1
Type: functional, cell-based
Experimental endpoint: Efficacy (%)

>>> test_value("COc1cc([C@H]2[C@](NC(=O)c3ccc(NC(=O)OC(C)(C)C)cc3)(C(=O)O)[C@H](c3ccc(OC(=O)c4cccs4)c(OC)c3)[C@@]2(NC(=O)c2ccc(NC(=O)OC(C)(C)C)cc2)C(=O)O)ccc1OC(=O)c1cccs1")
16.5

A: CC(C)(C)OC(=O)Nc1ccc(C(=O)N[C@]2(C(=O)O)[C@H](c3ccc(OC(=O)c4ccccc4)cc3)[C@@](NC(=O)c3ccc(NC(=O)OC(C)(C)C)cc3)(C(=O)O)[C@@H]2c2ccc(OC(=O)c3ccccc3)cc2)cc1
B: CCCC(=O)Nc1ccc(C(=O)N[C@]2(C(=O)O)[C@H](c3ccc(OC(=O)c4cccs4)c(OC)c3)[C@@](NC(=O)c3ccc(NC(=O)CCC)cc3)(C(=O)O)[C@@H]2c2ccc(OC(=O)c3cccs3)c(OC)c2)cc1
(Q) Higher Efficacy: A or B ? Use the label to indicate which entry you chose.
(A) B

----------
Target: Glucagon-like peptide 1 receptor (Rattus norvegicus) (UniProt P32301)
Experiment: Inhibition of [125I]GLP1 (7-36) amide binding to rat GLP1R expressed in HEK293 cells relative to untreated control
Format: cell-based
Set-up: concentration or dose not given beside the values
Conditions: concentration not given here
Experimental endpoint: inhibition (%)

>>> test_value("COc1cc([C@H]2[C@](NC(=O)c3ccc(NC(=O)OC(C)(C)C)cc3)(C(=O)O)[C@@H](c3ccc(OCc4ccccc4)c(OC)c3)[C@]2(NC(=O)c2ccc(NC(=O)OC(C)(C)C)cc2)C(=O)O)ccc1OCc1ccccc1")
10
>>> test_value("COc1cc([C@H]2[C@](NC(=O)c3ccc(NC(=O)C(C)C)cc3)(C(=O)O)[C@@H](c3ccc(OC(C)=O)c(OC)c3)[C@]2(NC(=O)c2ccc(NC(=O)C(C)C)cc2)C(=O)O)ccc1OC(C)=O")
34.1

a: COc1cc([C@H]2[C@](NC(=O)c3ccc(NC(=O)C(C)C)cc3)(C(=O)O)[C@@H](c3ccc(OC(=O)c4cccs4)c(OC)c3)[C@]2(NC(=O)c2ccc(NC(=O)C(C)C)cc2)C(=O)O)ccc1OC(=O)c1cccs1
b: COc1ccc([C@H]2[C@](NC(=O)c3ccc(NC(=O)OC(C)(C)C)cc3)(C(=O)O)[C@@H](c3ccc(OC)cc3)[C@]2(NC(=O)c2ccc(NC(=O)OC(C)(C)C)cc2)C(=O)O)cc1
c: CCC(=O)Oc1ccc([C@H]2[C@](NC(=O)c3ccc(NC(=O)OC(C)(C)C)cc3)(C(=O)O)[C@@H](c3ccc(OC(=O)CC)c(OC)c3)[C@]2(NC(=O)c2ccc(NC(=O)OC(C)(C)C)cc2)C(=O)O)cc1OC
d: CC(=O)Nc1ccc([C@H]2[C@](NC(=O)c3ccc(NC(=O)OC(C)(C)C)cc3)(C(=O)O)[C@@H](c3ccc(NC(C)=O)cc3)[C@]2(NC(=O)c2ccc(NC(=O)OC(C)(C)C)cc2)C(=O)O)cc1
e: COc1cc([C@H]2[C@](NC(=O)c3ccc(NC(=O)OC(C)(C)C)cc3)(C(=O)O)[C@@H](c3ccc(OC(=O)c4ccco4)c(OC)c3)[C@]2(NC(=O)c2ccc(NC(=O)OC(C)(C)C)cc2)C(=O)O)ccc1OC(=O)c1ccco1
(Q) Task for the reader: rank each entry by its inhibition, from the minimum upward. A complete answer lists every label in the requested sequence.
(A) b, d, e, a, c

----------
Target: Glucagon-like peptide 1 receptor (Rattus norvegicus) (UniProt P32301)
Test: Inhibition of [125I]Exendin (9-39) binding to rat GLP1R expressed in HEK293 cells
Format: cell-based
Set-up: concentration or dose not given beside the values
Details: concentration not given here
// inhibition lookup, one value per entry
Number only, in %; omit the unit.

>>> test_value("COc1cc([C@H]2[C@](NC(=O)c3ccc(NC(=O)C(C)(C)C)cc3)(C(=O)O)[C@@H](c3ccc(OC(=O)c4cccs4)c(OC)c3)[C@]2(NC(=O)c2ccc(NC(=O)C(C)(C)C)cc2)C(=O)O)ccc1OC(=O)c1cccs1")
33.4

(Q) Provide the reported inhibition (system: Glucagon-like peptide 1 receptor (Rattus norvegicus) (UniProt P32301)) for COc1cc([C@H]2[C@](NC(=O)c3ccc(NC(=O)C(C)NC(=O)OC(C)(C)C)cc3)(C(=O)O)[C@@H](c3ccc(OC(=O)c4cccs4)c(OC)c3)[C@]2(NC(=O)c2ccc(NC(=O)C(C)NC(=O)OC(C)(C)C)cc2)C(=O)O)ccc1OC(=O)c1cccs1 (some centres undefined)
(A) 69.7

----------
Target: Glucagon-like peptide 1 receptor (Rattus norvegicus)
Sequence (whole entry): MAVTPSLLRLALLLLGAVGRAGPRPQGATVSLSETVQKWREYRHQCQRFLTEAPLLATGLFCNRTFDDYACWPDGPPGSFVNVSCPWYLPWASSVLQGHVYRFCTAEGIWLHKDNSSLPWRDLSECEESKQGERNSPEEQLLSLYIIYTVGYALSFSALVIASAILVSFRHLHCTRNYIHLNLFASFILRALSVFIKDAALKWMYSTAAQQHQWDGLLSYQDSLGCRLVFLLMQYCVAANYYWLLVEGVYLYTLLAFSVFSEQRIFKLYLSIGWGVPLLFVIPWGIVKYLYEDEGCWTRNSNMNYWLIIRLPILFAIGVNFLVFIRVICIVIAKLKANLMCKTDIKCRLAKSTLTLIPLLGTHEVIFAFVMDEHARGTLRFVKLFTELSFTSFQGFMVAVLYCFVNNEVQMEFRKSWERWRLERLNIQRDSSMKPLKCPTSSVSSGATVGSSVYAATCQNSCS
Test: Inhibition of [125I]Exendin (9-39) binding to rat GLP1R expressed in HEK293 cells
Type: cell-based
Design: concentration or dose not given beside the values
Conditions: concentration not given here
Experimental endpoint: inhibition (%)

I: COc1cc([C@H]2[C@](NC(=O)c3ccc(NC(=O)C(C)C)cc3)(C(=O)O)[C@@H](c3ccc(OC(C)=O)c(OC)c3)[C@]2(NC(=O)c2ccc(NC(=O)C(C)C)cc2)C(=O)O)ccc1OC(C)=O
II: CCC(=O)Oc1ccc([C@H]2[C@](NC(=O)c3ccc(NC(=O)OC(C)(C)C)cc3)(C(=O)O)[C@@H](c3ccc(OC(=O)CC)c(OC)c3)[C@]2(NC(=O)c2ccc(NC(=O)OC(C)(C)C)cc2)C(=O)O)cc1OC
(Q) Higher inhibition: I or II ? Use the label to indicate which entry you chose.
(A) II
(II: 68.3%, I: 35.2%)

----------
Biological target: Glucagon-like peptide 1 receptor (Rattus norvegicus) (UniProt P32301)
Assay: Inhibition of [125I]Exendin (9-39) binding to rat GLP1R expressed in HEK293 cells
Type: cell-based
Design: concentration or dose not given beside the values
Settings: concentration not given here
Experimental endpoint: inhibition (%)

>>> test_value("COc1cc([C@H]2[C@](NC(=O)c3ccc(NC(=O)OC(C)(C)C)cc3)(C(=O)O)[C@H](c3ccc(OC(=O)c4cccs4)c(OC)c3)[C@@]2(NC(=O)c2ccc(NC(=O)OC(C)(C)C)cc2)C(=O)O)ccc1OC(=O)c1cccs1")
56.3
>>> test_value("COc1cc([C@H]2[C@](NC(=O)c3ccc(NC(=O)OC(C)(C)C)cc3)(C(=O)O)[C@@H](c3ccc(OC(=O)c4ccc(C)s4)c(OC)c3)[C@]2(NC(=O)c2ccc(NC(=O)OC(C)(C)C)cc2)C(=O)O)ccc1OC(=O)c1ccc(C)s1")
29.4
>>> test_value("COc1cc([C@H]2[C@](NC(=O)c3ccc(NC(=O)OC(C)(C)C)cc3)(C(=O)O)[C@@H](c3ccc(OC(=O)C45CC6CC(CC(C6)C4)C5)c(OC)c3)[C@]2(NC(=O)c2ccc(NC(=O)OC(C)(C)C)cc2)C(=O)O)ccc1OC(=O)C12CC3CC(CC(C3)C1)C2")
63.5
>>> test_value("COc1cc([C@H]2[C@](NC(=O)c3ccc(NC(=O)C(C)N)cc3)(C(=O)O)[C@@H](c3ccc(OC(=O)c4cccs4)c(OC)c3)[C@]2(NC(=O)c2ccc(NC(=O)C(C)N)cc2)C(=O)O)ccc1OC(=O)c1cccs1 (stereo partly drawn)")
27.9
>>> test_value("COc1cc([C@H]2[C@](NC(=O)c3ccc(NC(=O)OC(C)(C)C)cc3)(C(=O)O)[C@@H](c3ccc(OC(=O)c4ccco4)c(OC)c3)[C@]2(NC(=O)c2ccc(NC(=O)OC(C)(C)C)cc2)C(=O)O)ccc1OC(=O)c1ccco1")
8.3

a: CC(C)(C)OC(=O)Nc1ccc(C(=O)N[C@]2(C(=O)O)[C@H](c3ccc(OCc4ccccc4)cc3)[C@@](NC(=O)c3ccc(NC(=O)OC(C)(C)C)cc3)(C(=O)O)[C@@H]2c2ccc(OCc3ccccc3)cc2)cc1
b: COc1cc([C@H]2[C@](NC(=O)c3ccc(NC(=O)C4CCCCC4)cc3)(C(=O)O)[C@@H](c3ccc(OC(=O)c4cccs4)c(OC)c3)[C@]2(NC(=O)c2ccc(NC(=O)C3CCCCC3)cc2)C(=O)O)ccc1OC(=O)c1cccs1
(Q) Higher inhibition: a or b ? Use the label to indicate which entry you chose.
(A) b

a: CCCC(=O)Oc1ccc([C@H]2[C@](NC(=O)c3ccc(NC(=O)OC(C)(C)C)cc3)(C(=O)O)[C@@H](c3ccc(OC(=O)CCC)c(OC)c3)[C@]2(NC(=O)c2ccc(NC(=O)OC(C)(C)C)cc2)C(=O)O)cc1OC
b: COc1cc([C@H]2[C@](NC(=O)c3ccc(NC(=O)OC(C)(C)C)cc3)(C(=O)O)[C@@H](c3ccc(OC(=O)C(C)C)c(OC)c3)[C@]2(NC(=O)c2ccc(NC(=O)OC(C)(C)C)cc2)C(=O)O)ccc1OC(=O)C(C)C
(Q) Higher inhibition: a or b ? Use the label to indicate which entry you chose.
(A) a
(a: 53.8%, b: 34.8%)

1: CCCC(=O)Nc1ccc(C(=O)N[C@]2(C(=O)O)[C@H](c3ccc(OC(=O)c4cccs4)c(OC)c3)[C@@](NC(=O)c3ccc(NC(=O)CCC)cc3)(C(=O)O)[C@@H]2c2ccc(OC(=O)c3cccs3)c(OC)c2)cc1
2: CC(=O)Nc1ccc([C@H]2[C@](NC(=O)c3ccc(NC(=O)OC(C)(C)C)cc3)(C(=O)O)[C@@H](c3ccc(NC(C)=O)cc3)[C@]2(NC(=O)c2ccc(NC(=O)OC(C)(C)C)cc2)C(=O)O)cc1
(Q) Higher inhibition: 1 or 2 ? Use the label to indicate which entry you chose.
(A) 1
(1: 48.2%, 2: 2.8%)

P: COc1cc([C@H]2[C@](NC(=O)c3ccc(NC(=O)C4CC4)cc3)(C(=O)O)[C@@H](c3ccc(OC(=O)c4cccs4)c(OC)c3)[C@]2(NC(=O)c2ccc(NC(=O)C3CC3)cc2)C(=O)O)ccc1OC(=O)c1cccs1
Q: COc1cc([C@H]2[C@](NC(=O)c3ccc(NC(=O)C45CC6CC(CC(C6)C4)C5)cc3)(C(=O)O)[C@@H](c3ccc(OC(=O)c4cccs4)c(OC)c3)[C@]2(NC(=O)c2ccc(NC(=O)C34CC5CC(CC(C5)C3)C4)cc2)C(=O)O)ccc1OC(=O)c1cccs1
(Q) Select the item whose inhibition value is smaller, choosing between P and Q . Use the label to indicate which entry you chose.
(A) Q
